Biological target: T1, CD137 antigen (Octet antigen binding assay) (UniProt Q07011 24-186, limits assumed)
T1 construct: also called 4-1BB; TNFRSF9
Experiment: BLI, Octet Red 96, antibody on anti-human Fc (AHC) biosensors, 1:1 model
observable: koff (s⁻¹)
Give the quantity in s⁻¹, number only.

stdin: I would be grateful if you could share the reported koff for LYV402 (26B3-IgG4) (antibody, V domains shown, Chimeric antibody, human IgG4 S228P / human kappa; also called 26B3b in hG4SP / human kappa) VH: EVKLLESGGGLVQPGGSLKLSCAASGFDFSRYWMSWVRQAPGKGLEWIGEINPDSNPINYTPSLKDKFIISRDNAKNTLYLQMSKVRSEDTALYYCARDGSSSRYFDVWGAGTTVTVSS VL: DIVMTQSPATLSVTPGDRVSLSCRASQSISDYLHWYQQKSHESPRLLIKYVSQSISGIPSRFSGSGSGSDFTLSINSVEPEDVGVYYCQNGHSFPPTFGGGTKLEIKR .
stdout: 0.00034

stdin: LYV375 (22F2-IgG4) (antibody, V domains shown, Chimeric antibody, human IgG4 S228P / human kappa; also called 22F2 in human IgG4SP / human Kappa) VH: EVKLVESGAELVRPGSSVKISCKASGYAFSLYWMNWVKQRPGQGLEWIGQIYPGDGYTNYNGKFKGKATLTADKSSSTAYMQLSSLTSEDSAVYFCARGQLGLDGYWGQGTTLTVSS VL: QIVLTQSPAIMSASPGEKVTMTCSASSSVSYIYWYQQKPGSSPRLLIYDTSNLASGVPVRFSGSGSGTSYSLTISRMEAEDAATYYCQQWNIYPYTFGGGTKLEIKR ?
stdout: 0.0023

stdin: LYV372 (23D2-IgG4) (antibody, V domains shown, Chimeric antibody, human IgG4 S228P / human kappa; also called 23D2 in human IgG4S; 23D2b in human Kappa) VH: QVQLQQSGAELVRPGSSVKISCKASGYAFSIYWMNWVKQRPGQGLEWIGQIYPGDGYTNYNGKFKGKATLTADKSSSTAYMQLSSLTSEDSAVYFCARGQLGLDGYWGQGTTLTVSS VL: QIVLTQSPTIMSASPGEKVTMTCSASSSVSYIYWYQQKPGSSPRLLIYDTSNLASGVPVRFSGSGSGTSYSLTISRMEAEDAATYYCQQWNIYPYTFGGGTKLEIKR ?
stdout: 0.0016

stdin: LYV371 (11E10-IgG4) (antibody, V domains shown, Chimeric antibody, human IgG4 S228P / human kappa; also called 11E10 in human IgG4SP / human Kappa) VH: QVQLQQSGAELVRPGASVTLSCKASGYTFAGFEMHWIKQTPVHGLGWIGAIDPKTGGTDYNQKFKDKALLTADKSSNTAYMELRSLTSEDSAVYYCTRDLGYFDVWGTGTTVTVSS VL: DIQMTQTTSSLSASLGDRVTISCRASQDIRSNLNWYQQKPDGTVKLLIYYTSRLHSGVPSRFSGSGSGTDYSLTISNLEQEDIATYFCQQSEKLPRTFGGGTKLEIRR ?
stdout: 0.0011

stdin: LYV390 (30C11-IgG4) (antibody, V domains shown, Chimeric antibody, human IgG4 S228P / human kappa; also called 30C11 in hG4SP / human kappa) VH: QIQLVQSGPELKKPGESVKISCKASGYTFTDYAMHWVKQAPGKALKWMGLINTYTGKPTYVDDLKGRFVFSLEASASTAKLQISNLKNEDTAIYFCARYYHDGTYYGWFANWGQGTLVTVSS VL: DTVLTQSPALAVSPGERVTVSCGATESVSTALNWYQQKPGQQPRLLIYGASNLESGVPARFSGSGSGTDFTLSIDPVEADDTATYFCQQTWNDPLTFGSGTKLEIKR ?
stdout: 0.0014

stdin: LYV370 (20A12-IgG4) (antibody, V domains shown, Chimeric antibody: hybridoma variable domains on human IgG4 constant region with hinge S228P (EU numbering) and human kappa constant region; S228P is already in the full chain entry; also called 20A12 in human IgG4SP / human kappa) VH: QIQLVQSGPELKKPGETVKISCKASGYTFTTYGMSWVKQAPGKGLKWMGWINTYSGVPTYADDFKGRFAFSLETSASTAYLQINNLKNEDMAIYFCARGYGSPDYWGQGTTLTVSS VL: QIVLTQSPAIMSASPGEKVTMTCSASSSVSYMNWYQQKSGTSPKRWIFDTSKLASGVPARFSGSGSGTSYSLTISSMEAEDAATYYCQQWSGNPPISTFGSGTKLEIKR ?
stdout: 0.001
